Kindly state log2 fold change of degron read counts for each of the entries shown.
STUDY_SYSTEM: T1, CRBN, Q96SW2;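 further: pooled lentiviral library of zinc finger degron-EGFP fusions in mCherry-positive Jurkat cells, FACS-sorted after compound exposure, with degron abundance counted by next-generation sequencing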
T1 chain: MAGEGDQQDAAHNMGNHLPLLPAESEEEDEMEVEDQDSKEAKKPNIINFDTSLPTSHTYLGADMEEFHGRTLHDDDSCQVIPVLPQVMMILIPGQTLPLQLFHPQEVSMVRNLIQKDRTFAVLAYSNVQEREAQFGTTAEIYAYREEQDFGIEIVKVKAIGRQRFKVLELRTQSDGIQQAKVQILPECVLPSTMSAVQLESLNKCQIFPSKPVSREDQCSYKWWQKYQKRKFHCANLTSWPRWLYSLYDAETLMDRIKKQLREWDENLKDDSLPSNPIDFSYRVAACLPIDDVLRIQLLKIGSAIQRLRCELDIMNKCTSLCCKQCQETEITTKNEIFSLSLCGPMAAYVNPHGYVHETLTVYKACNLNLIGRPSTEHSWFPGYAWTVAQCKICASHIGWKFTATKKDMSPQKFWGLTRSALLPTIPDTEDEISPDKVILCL
ASSAY_REMARKS: log2 fold change of degron read counts, EGFP-low vs EGFP+ sorted cells (limma voom), compound-induced degradation; higher = more compound-induced degradation of the degron-EGFP fusion; degrons are variants of IKZF1/3 zinc finger 2; compound dose not given here
RUN_CONDITIONS: Jurkat; 18 h; compound: compound 33 (diphenyl IMiD analogue)
In all, about 8,300 sequences were measured (“log2 fold change of degron read counts, EGFP-low vs EGFP+ sorted cells (limma voom), compound-induced degradation”: median about -1.1, highest 2% from about 3.2 on). This excerpt belongs to a sample that is enriched for the highest values.
Would you mind answering with just the numeric figure?

Input: # query: log2 fold change of degron read counts of entry FHCEICGAQFTQKGNLLRHIKL [46F_47H_49E_50I_52G_53A_54Q_55F_67L_, Q9UKT9]
Output: 2

Input: Please give the result for FECDICGANFTQKGNLLRHIKL [46F_47E_49D_50I_52G_53A_54N_55F_67L_, Q9UKT9] too.
Output: 0.537

Input: Please give the result for FRCEICGAQFTQKGNLLRHIKL [46F_47R_49E_50I_52G_53A_54Q_55F_67L_, Q9UKT9] too.
Output: 1.38

Input: Please give the result for FHCDICGANFTQKGNLLRHIKL [46F_47H_49D_50I_52G_53A_54N_55F_67L_, Q9UKT9] too.
Output: -1.82
